Give Tm for every item shown.
- ASSAY_REMARKS: melting temperature; fluorescence melt of hairpins on a sequencing array, two-state fit, raised by 9.35 °C to match UV melts
- RUN_PARAMETERS: sodium 0.088 M
One number for each entry, in °C.

The examples below pair each entry with its known result.
# SEQ_STRING, Tm, °C
records = [
    ("GGTCGACGAAAGTCACC (((.(((....))))))", 50.9),
    ("GTGACAGGAAACCGTCAC (((((.(....).)))))", 50.4),
    ("GTGTCCGAAAGGACCAC ((((((....))).)))", 48.5),
    ("GGTCTCGAAAGAGGACC ((((((....))).)))", 49.5),
    ("GCTTTGCGAAAGCGAAGC ((((.((....)).))))", 66.2),
]

Please supply Tm for each of the following items, keeping them in order.
1. GGCAACGGAAACGCTGCC ((((.((....)).))))
2. GATCACAGCTGTGATC ((((((....))))))
3. GATCAGGTGCTGATC ((((((...))))))

1: 53.6; 2: 59; 3: 48.6

List the reported Tm of each sequence below.
1. GATCAAACCGTTGATC ((((((....))))))
2. GCAGGGCGAAAGCAATGC (((..((....))..)))
3. GAGAACCGAAAGGTCTC (((.(((....))))))
4. GATCCTCATAAGGATC ((((((....))))))
5. GGTCCCGAAAGGGTAACC ((((((....)))..)))
6. GTTGCCGAAAGGCGAAAC ((((((....)))..)))
7. GTTGCCGAAAGGCCAAAC ((((((....)))..)))

[42, 59.9, 48.1, 52.6, 42.2, 33.2, 26.9]

Items follow; give Tm for each.
1. GGGCCACGAAAGTGACCC (((.(((....))).)))
2. GTTGCAGGAAACTGCGAC ((.((((....)))).))

[64.4, 53.9]

Below are some sequences; for each one, tell me its Tm.
1. GATCGCCACAGCGATC ((((((....))))))
2. GCTCGGCGAAAGCTTAGC (((..((....))..)))
3. GATTAGGCGAAAGCCATC (((..(((....))))))

[68.8, 40.9, 23.4]

----------
- ASSAY_REMARKS: folding enthalpy; higher = less favourable; fluorescence melt of hairpins on a sequencing array, two-state fit
- RUN_PARAMETERS: sodium 0.088 M
OBSERVATION_TYPE: folding enthalpy
Quote the value and follow it with the unit of measurement.

Observe how each entry below is paired with its result.
# SEQ_STRING, folding enthalpy
records = [
    ("CGTTTTCGGAAACGAACG (((..(((....))))))", "-12.1 kcal/mol"),
    ("GTCGCATCGAAAGATGAC (((..(((....))))))", "-13.4 kcal/mol"),
    ("GGCGACGAAAGTCGTGCC ((((((....)))..)))", "-12.7 kcal/mol"),
    ("GCAACGGGAAACCGTTAC (.(((((....))))).)", "-13.3 kcal/mol"),
]

Lab note: next sequence to report on.
Need folding enthalpy of GATCCCAGGGGGATC ((((((...)))))) , thanks.
-34.7 kcal/mol

Data origin, for the record: the array DNA melting data of Ke et al. (doi:10.1101/2024.01.08.574731)
